# ASSAY SYSTEM: HA of ca A/Beijing/262/95 (H1N1) virus (influenza A virus)
# ASSAY INFO: cell-based or functional assay
READOUT TYPE: Neutralization IC50, H1-BJ95 (µg/mL)

Antibody 3 (antibody, V domains shown) VH: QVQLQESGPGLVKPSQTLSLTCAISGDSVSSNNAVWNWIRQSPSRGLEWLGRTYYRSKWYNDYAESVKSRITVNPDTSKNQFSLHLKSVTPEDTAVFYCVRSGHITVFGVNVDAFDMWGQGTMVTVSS VL: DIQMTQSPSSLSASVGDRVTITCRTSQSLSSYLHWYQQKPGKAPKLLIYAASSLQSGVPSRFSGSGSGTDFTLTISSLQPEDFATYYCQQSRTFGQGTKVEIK
3.41
